The measured values listed here are drawn from patent US20250136579A1.

Test: estimated solubility by adding test solvent in aliquots to weighed solid, visual inspection
Type: physicochemical
Settings: organic solvent or mixture, thermodynamic from solid; methyl ethyl ketone (MEK); at 60° C.; read-out: Solubility
Protocol: Solubilities of the compound of Formula (I), free base, in a few solvents were estimated. The experiments were carried out by adding the test solvent in aliquots to weighed portions of solid. […] Solubility numbers were calculated by dividing the weight of the sample by total amount of solvent used to dissolve the sample. The actual solubilities may be greater than the numbers calculated because of the use of solvent aliquots that were too large or because of slow dissolution rates. […]
measuredQuantity: solubility

Find the recorded solubility belonging to CN1CCN([C@@H]2CCCN(c3cnc(C(N)=O)c(Nc4ccc(C5CCN(CC6CCN(c7ccc(C(=O)N[C@H]8CCC(=O)NC8=O)nc7)CC6)CC5)cc4)n3)C2)C1=O.O=C(O)/C=C/C(=O)O [Fumarate Salt Form A] and report it.
< 1000 µg/mL
